Reference source for all entries: paper PMC6386362

# measurement_target: UniProt:P9WG49
# Sequence (P9WG49 whole entry): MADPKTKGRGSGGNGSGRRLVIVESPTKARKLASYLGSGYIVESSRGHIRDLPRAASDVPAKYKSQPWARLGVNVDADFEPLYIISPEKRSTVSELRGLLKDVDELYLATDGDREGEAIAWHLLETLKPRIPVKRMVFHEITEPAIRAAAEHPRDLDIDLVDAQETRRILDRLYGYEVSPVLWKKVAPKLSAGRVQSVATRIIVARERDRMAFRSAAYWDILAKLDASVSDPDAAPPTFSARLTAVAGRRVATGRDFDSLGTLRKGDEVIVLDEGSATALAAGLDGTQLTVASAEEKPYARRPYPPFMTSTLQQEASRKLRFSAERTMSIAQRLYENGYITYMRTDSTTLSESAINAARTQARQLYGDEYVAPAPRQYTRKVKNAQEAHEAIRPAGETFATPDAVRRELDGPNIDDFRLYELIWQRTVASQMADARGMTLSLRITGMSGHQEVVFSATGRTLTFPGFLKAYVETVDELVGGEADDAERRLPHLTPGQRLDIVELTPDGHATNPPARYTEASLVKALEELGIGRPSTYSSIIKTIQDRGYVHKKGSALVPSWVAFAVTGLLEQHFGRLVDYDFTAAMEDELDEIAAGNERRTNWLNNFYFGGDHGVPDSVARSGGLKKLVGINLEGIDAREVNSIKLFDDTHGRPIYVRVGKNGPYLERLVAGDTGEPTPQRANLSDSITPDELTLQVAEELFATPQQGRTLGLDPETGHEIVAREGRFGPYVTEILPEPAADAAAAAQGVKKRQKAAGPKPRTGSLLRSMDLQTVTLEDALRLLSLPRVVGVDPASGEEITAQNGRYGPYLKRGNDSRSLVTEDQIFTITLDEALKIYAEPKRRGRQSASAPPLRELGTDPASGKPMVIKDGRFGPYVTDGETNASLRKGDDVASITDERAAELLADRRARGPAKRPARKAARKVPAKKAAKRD
measured_endpoint: IC50 (nM)

- Nc1ccc2c(c1)Oc1c(N3CCC(N4CCCCC4)CC3)c(F)cc3c(=O)c(C(=O)O)cn-2c13 [FP-11g]: 240
